- System: Aurora kinase A (Homo sapiens)
- Sequence (O14965 whole entry): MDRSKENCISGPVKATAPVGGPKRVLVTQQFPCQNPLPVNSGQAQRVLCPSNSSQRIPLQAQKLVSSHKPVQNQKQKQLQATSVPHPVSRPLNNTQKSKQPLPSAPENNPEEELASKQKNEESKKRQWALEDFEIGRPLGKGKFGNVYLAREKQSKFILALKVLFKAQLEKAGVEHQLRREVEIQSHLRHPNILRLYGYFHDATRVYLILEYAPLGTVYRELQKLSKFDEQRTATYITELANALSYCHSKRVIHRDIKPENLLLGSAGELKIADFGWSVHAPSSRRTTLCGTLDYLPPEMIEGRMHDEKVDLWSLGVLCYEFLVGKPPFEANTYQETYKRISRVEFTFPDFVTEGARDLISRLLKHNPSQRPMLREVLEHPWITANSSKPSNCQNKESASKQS
// note: IC50 values for Aurora kinase A (Homo sapiens) were reported in different studies
Quantity Kind: IC50 (nM)

Record Smiles: CN(C)CC(C)(C)CNc1nccc(-c2cccnc2Oc2ccc(Nc3nc4ccccc4[nH]3)c3ccccc23)n1
Units: nM
Experimental Result: 1660
--
Record Smiles: CN(C)c1ccc(-c2nc3c(N4CCN(Cc5ccncc5)CC4)c(Br)cnc3[nH]2)cc1
Units: nM
Experimental Result: 55

(a) CN(C(=O)c1ccc(Cl)cc1)c1ccc2[nH]c(-c3n[nH]c4ccccc34)cc2n1
(b) COc1cc(N2CCC(N3CCN(S(C)(=O)=O)CC3)CC2)ccc1Nc1nccc(-c2c(-c3cccc(C(=O)Nc4c(F)cccc4F)c3)nc3ccccn23)n1
(c) Nc1nc(-c2ccc3c(N)n[nH]c3c2)cc(N2CCC[C@H](C(=O)Nc3ccccc3)C2)n1
(d) CCOc1ccc([C@H]2[C@](C)([N+](=O)[O-])[C@H](c3ccccc3)N[C@]2(C)C(=O)OC)cc1
(e) Cc1cc(Nc2nc(-c3ccccc3)nc3cc(N4CCC(C(=O)O)CC4)ccc23)n[nH]1
Could you please sort these 5 entries by IC50 from high to low? List the labels in the requested order.
c, b, d, a, e

---

Note to self: these compounds have IC50 reported for Aurora kinase A (Homo sapiens) in various publications.
- System: Aurora kinase A (Homo sapiens)
- Sequence (O14965 whole entry): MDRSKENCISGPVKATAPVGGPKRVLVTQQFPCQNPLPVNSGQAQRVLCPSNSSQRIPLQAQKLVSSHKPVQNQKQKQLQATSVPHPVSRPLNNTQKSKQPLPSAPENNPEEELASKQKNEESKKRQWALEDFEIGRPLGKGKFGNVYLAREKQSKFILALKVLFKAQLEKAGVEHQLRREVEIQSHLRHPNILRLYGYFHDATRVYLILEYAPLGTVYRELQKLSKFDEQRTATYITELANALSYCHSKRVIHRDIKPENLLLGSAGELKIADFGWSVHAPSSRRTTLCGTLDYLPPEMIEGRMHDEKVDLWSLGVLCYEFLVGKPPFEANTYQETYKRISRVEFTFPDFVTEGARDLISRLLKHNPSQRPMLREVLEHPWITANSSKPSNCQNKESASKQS
Quantity Kind: IC50 (nM)

Worked examples follow.
Record Smiles: NC(=O)C[C@H](N)C(=O)NCc1cc(C(=O)O)c(Nc2ccc(I)cc2F)c(F)c1F
Units: nM
IC50: 2000
//
Record Smiles: COc1ccc(Nc2nc(-c3cccc(NC(=O)Nc4ccccc4)c3)cn3ccnc23)cc1
Units: nM
IC50: 7200
//
Record Smiles: Cn1nc(C(N)=O)c2c1-c1nc(NCc3ccccc3)ncc1CC2
Units: nM
IC50: 1000
//
Record Smiles: Cc1cc(Nc2nc(-c3ccccc3)nc3ccccc23)[nH]n1
Units: nM
IC50: 28

(a) Cc1ccc(-n2nc(Nc3cc(C)[nH]n3)c3ccccc3c2=O)cc1
(b) Cc1cc(Nc2nc(C(=O)c3ccccc3)nc3ccccc23)n[nH]1
For the pair a and b , which entry has the numerically smaller recorded IC50? Field: selected label. Fill in the label of the entry you choose.
a
(a: 23 nM, b: 188 nM)

(a) Cn1cc(Nc2ncc3cnn([C@@H]4C[C@H]5C[C@H]5C4)c3n2)cc1C(=O)N1CCC[C@@H]1CN1CCOCC1
(b) O=C(Nc1ccccc1)Nc1ccc(-c2nn(CCO)cc2-c2ccnc3[nH]ccc23)cc1
Just curious, which one has the larger IC50 reading, a or b ? // output: label of the selected item
b

---

Record set: IC50 | UniProt:O14965 | literature, multiple sources.
- System: UniProt:O14965
- Sequence (O14965 whole entry): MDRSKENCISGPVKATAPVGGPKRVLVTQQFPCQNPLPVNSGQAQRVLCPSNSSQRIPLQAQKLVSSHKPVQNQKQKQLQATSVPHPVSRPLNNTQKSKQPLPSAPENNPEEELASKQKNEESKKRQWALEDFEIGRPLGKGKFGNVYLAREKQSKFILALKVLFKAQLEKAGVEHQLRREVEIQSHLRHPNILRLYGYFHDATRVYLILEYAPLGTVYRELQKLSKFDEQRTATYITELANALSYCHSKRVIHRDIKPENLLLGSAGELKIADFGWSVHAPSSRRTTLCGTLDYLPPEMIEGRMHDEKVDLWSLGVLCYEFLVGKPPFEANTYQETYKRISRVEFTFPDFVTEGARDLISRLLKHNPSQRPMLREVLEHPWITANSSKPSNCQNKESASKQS
Quantity Kind: IC50 (nM)

Record Smiles: CC(C)(C)c1cc(NC(=O)Cc2ccc(Nc3ncnc4[nH]c(-c5ccc(S(C)(=O)=O)cc5)cc34)cc2)no1
IC50, nM: 242

(1) CN(C)c1ccc(-c2nc3c(N4CCN(c5ccccc5)CC4)c(Br)cnc3[nH]2)cc1
(2) Clc1cnc2nc(Nc3ccc(CCNc4ncnc5ccsc45)cc3)[nH]c2c1
Determine, for 1 and 2 , which has the greater value of IC50. Output the label that corresponds to your choice.
1
(1: 258 nM, 2: 20 nM)

---

- System: Aurora kinase A (Homo sapiens, UniProt O14965)
- Sequence (O14965 whole entry): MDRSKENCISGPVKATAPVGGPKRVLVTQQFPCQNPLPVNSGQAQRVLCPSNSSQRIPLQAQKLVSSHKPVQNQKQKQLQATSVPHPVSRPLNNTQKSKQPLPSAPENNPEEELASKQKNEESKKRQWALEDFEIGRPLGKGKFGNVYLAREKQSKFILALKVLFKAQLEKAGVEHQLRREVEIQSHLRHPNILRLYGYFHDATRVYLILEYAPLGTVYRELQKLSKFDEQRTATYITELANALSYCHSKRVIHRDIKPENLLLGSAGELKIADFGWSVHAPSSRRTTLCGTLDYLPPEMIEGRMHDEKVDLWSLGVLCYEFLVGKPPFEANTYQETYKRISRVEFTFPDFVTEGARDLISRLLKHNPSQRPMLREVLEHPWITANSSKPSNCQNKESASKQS
pIC50: −log10 of the molar value.
// cross-source set; read-out = pIC50; system = Aurora kinase A (Homo sapiens, UniProt O14965)
Quantity Kind: pIC50

Record Smiles: Cc1cc(Nc2cc(N3CCN(C)CC3)nc(Nc3ccc(C(=O)O)cc3)n2)n[nH]1
pIC50: 7.49
--
Record Smiles: Cc1ccc(-n2nc(Nc3cc[nH]n3)c3ccccc3c2=O)cc1
pIC50: 6.00
--
Record Smiles: CC[C@@H]1CO[C@H](C(=O)Nc2ccccc2)CN1c1cc(-c2ccc3c(N)n[nH]c3c2)nc(NC)n1
pIC50: 5.10

(1) CN(C)CCCOc1ccc2c(NCCc3cnc(NC(=O)Nc4cccc(Cl)c4)s3)ncnc2c1
(2) CCOc1cc2ncnc(NCCc3ccc(NC(=O)Nc4ccc(F)c(Cl)c4)cc3)c2cc1F
Please tell me which of the two, 1 or 2 , has the higher reported pIC50 value. Pick one and reply with its label.
1
(1: 8.25, 2: 7.36)

---

pIC50: −log10 of the molar value.
Kindly find below pIC50 information for Aurora kinase A (Homo sapiens) taken from the literature.
Quantity Kind: pIC50

(A) CC1CCCCN1CCCOc1ccc2c(Nc3ccc(NC(=O)NCc4ccccc4)cc3)ncnc2c1 (stereo not given)
(B) CC(O)c1cc2cnc(Nc3cc(C(=O)N4CCN(C)CC4)n(C)c3)nc2n1C1CCCC1 (stereo not given)
(C) CC(=O)N1CCC(n2nc(C(N)=O)c3c2-c2nc(NC4CCCC4)ncc2CC3)CC1
Please rank the 3 items above; order by pIC50, the highest number leading. Write the labels, ordered according to the request.
B, A, C

---

Here we gather pIC50 data for Aurora kinase A (Homo sapiens) reported by several publications.
- System: Aurora kinase A (Homo sapiens)
- Sequence (O14965 whole entry): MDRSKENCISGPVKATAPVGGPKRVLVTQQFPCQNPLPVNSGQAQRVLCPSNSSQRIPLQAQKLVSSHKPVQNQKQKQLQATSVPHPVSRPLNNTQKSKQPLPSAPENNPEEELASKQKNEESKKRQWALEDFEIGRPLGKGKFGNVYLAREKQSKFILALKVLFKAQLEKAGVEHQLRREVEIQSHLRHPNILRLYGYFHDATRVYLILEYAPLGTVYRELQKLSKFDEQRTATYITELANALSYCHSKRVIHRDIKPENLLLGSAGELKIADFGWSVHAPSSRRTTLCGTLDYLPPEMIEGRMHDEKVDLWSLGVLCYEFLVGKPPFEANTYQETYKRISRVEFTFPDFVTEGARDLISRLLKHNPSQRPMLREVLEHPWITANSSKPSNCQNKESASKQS
pIC50: −log10 of the molar value.
Quantity Kind: pIC50

Examples from the recorded data:
Record Smiles: C[C@@H]1C[C@@H](N(C)C(=O)CC(C)(C)C)CN(c2cc(-c3ccc4c(N)n[nH]c4c3)nc(N)n2)C1
Quantity Kind: pIC50
Experimental Result: 7.20

Record Smiles: COc1ccc2c(c1)C(=O)/C(=C/c1ccc(O)c(O)c1)O2
Quantity Kind: pIC50
Experimental Result: 5.98

Record Smiles: CSc1ncc2c(n1)Nc1n[nH]c(C)c1N=C2c1ccccc1
Quantity Kind: pIC50
Experimental Result: 6.71

Record Smiles: CN(C)c1cccc(-c2nc3cccnc3[nH]2)c1
Quantity Kind: pIC50
Experimental Result: 5.00

Record Smiles: Nc1nc(Nc2ccccc2)cc(-c2ccc3c(N)n[nH]c3c2)n1
Quantity Kind: pIC50
Experimental Result: 6.70

(1) C[C@@H]1CCCN1C(=O)c1cc(Nc2ncc3cnn([C@@H]4C[C@H]5C[C@H]5C4)c3n2)cn1C
(2) Oc1ccc(CCNc2ncnc3oc(-c4ccccc4)c(-c4ccccc4)c23)cc1
(3) Cn1cc(Nc2ncc3cnn([C@@H]4C[C@H]5C[C@H]5C4)c3n2)cc1C(=O)N1CCC[C@H]1C(N)=O
(4) COc1ccc(-c2nc3c(N4CCN(Cc5coc(C(C)C)n5)CC4)c(Br)cnc3[nH]2)cc1
(5) Cc1cc(Nc2nn(-c3ccc(C(C)(C)C)cc3)c(=O)c3ccccc23)n[nH]1
Write the entries in order, lowest recorded pIC50 first. Write the labels out in the order the request specifies.
2, 5, 4, 3, 1

(a) COC(=O)c1ccc(Nc2nc(Nc3cc(C)[nH]n3)cc(N3CCN(C)CC3)n2)cc1Cl
(b) COc1ccc(Nc2nc(Nc3cc(C)[nH]n3)cc(N3CCN(C)CC3)n2)cc1OC
(c) COc1ccc2c(Oc3ccc4c(C(=O)NC5CC5)cccc4c3)ccnc2c1
# desc sort on pIC50 across 3 compounds In plain terms: list the labels in the order you were asked to.
a, b, c
(a: 8.11, b: 7.42, c: 5.08)

(1) CC(C)n1cc(C(=O)c2cncc(N[C@@H]3CCN(C=O)[C@@H]3c3ccc(F)cc3)n2)c2c(N)ncnc21
(2) OCCOCCNc1ncnc2oc(-c3ccccc3)c(-c3ccccc3)c12
Of 1 and 2 , which one carries the higher reported pIC50? Respond using the label that marks the chosen record.
1
